IC50 for UniProt:P00533, merged from several publications.
value kind: IC50 (nM)

Reference set, count: 3
[
  {
    "chem smiles": "CCOC(=O)CCCn1c(=O)oc2cc3ncnc(Nc4cc(C(=O)OCC)ccc4O)c3cc21",
    "unit tag": "nM",
    "recorded measurement": 7.3
  },
  {
    "chem smiles": "COCCOc1cc2ncnc(-c3c[nH]c4cc(F)c(Cl)cc34)c2cc1OCCOC",
    "unit tag": "nM",
    "recorded measurement": 472
  },
  {
    "chem smiles": "Cc1ccc(Nc2ncnn3c(C)ccc23)cc1O",
    "unit tag": "nM",
    "recorded measurement": 29400
  }
]

(I) C[C@@H](COc1cccc2ncnc(Nc3ccc(OCc4ccccn4)c(Cl)c3)c12)N(C)C(=O)CO
(II) COc1cc2c(Nc3ccc(NC(=O)Nc4ccc(C)c(C)c4)c(Cl)c3)ncnc2cc1OCCCN1CCN(C)CC1
Which entry shows the lesser value of IC50 here, I or II ? Record your answer as the label of the chosen record.
II
(II: 1 nM, I: 2580 nM)
